measurement_target: BRD4 (BD1) (Homo sapiens, UniProt O60885)
Construct: A pET28 plasmid containing residues 44–168 of BRD4 (BD1), a 6xHis tag, a TEV protease cleavage site; 6xHis (N, cleaved yes); made in house; host or cells: E. coli Rosetta (D3)
protocol_description: Competitive HTRF TR-FRET binding assay (displacement of acetylated histone H4 peptide)
experimental_readout: pIC50
On this scale, pIC50 is minus log10 of a concentration expressed in M (mol/L).

The value of pIC50 measured for the compound COc1ccc(-n2c(C)nnc2SCC(=O)Nc2ccc(C)c(Cl)c2Cl)cc1 [Compound 55] turned out to be 5.99

----------
measurement_target: BRD4 (BD1) (Homo sapiens, UniProt O60885)
Construct: A pET28 plasmid containing residues 44–168 of BRD4 (BD1), a 6xHis tag, a TEV protease cleavage site; 6xHis (N, cleaved yes); made in house; host or cells: E. coli Rosetta (D3)
protocol_description: Competitive HTRF TR-FRET binding assay (displacement of acetylated histone H4 peptide)
assay_conditions: 16-point titration 0.1 nM to 10 µM, n = 2; Negative = curve could not be fitted to a sigmoidal curve; read-out: TR-FRET IC50
For each of the compounds below, state its IC50.
Your answer is read as nM, so omit the unit and give the number.

The value of IC50 measured for the compound `CCCc1c(C(=O)N2CCC(Cc3cn(C4CC4)nn3)CC2)[nH]c(C)c1C(C)=O` turned out to be 277

The value of IC50 measured for the compound `COc1ccc(-n2c(C)nnc2SCC(=O)N(c2ccccc2)C2CC2)cc1` turned out to be 53.2

The value of IC50 measured for the compound CC(NC(=O)CC1(C)CCCO1)C1(O)CN(C(=O)c2nsnc2O)C1 (stereo not drawn) turned out to be 155

The value of IC50 measured for the compound `Cc1cc(C)n2nc(NC(=O)N3CCc4cc(Cl)cc(Cl)c4C3)nc2n1` turned out to be 135

The value of IC50 measured for the compound CCCc1c(C(=O)N2CCOC(CNC(=O)c3cc(C)ccn3)C2)[nH]c(C)c1C(C)=O (stereo not drawn) turned out to be 372

The value of IC50 measured for the compound `COc1cccc(-n2c(C)nnc2SCC(=O)Nc2ccc(C(F)F)cc2)c1` turned out to be 1590

The value of IC50 measured for the compound COc1ccc(-c2cc(NC(=O)C(=O)NC(C)c3nnc4ncccn34)ccc2OC)cc1 (stereo not drawn) turned out to be 256

The value of IC50 measured for the compound Cc1nonc1CC(=O)N1CC(CC(C)NC(=O)c2nsnc2O)C1 (stereo not drawn) turned out to be 213

The value of IC50 measured for the compound COc1ccc(-n2c(C)nnc2SCC(=O)NC2CCC3(CNC3)C2)cc1 (stereo not drawn) turned out to be 105

The value of IC50 measured for the compound Cc1nnc(NC(=O)NCc2cccc(C(=O)NCC3CCCO3)c2)s1 (stereo not drawn) turned out to be 10700

The value of IC50 measured for the compound COc1cccc(-n2c(C)nnc2SCC(=O)N2CC3CCC2CN3C(=O)c2ccns2)c1 (stereo not drawn) turned out to be 1070

The value of IC50 measured for the compound Cn1ccnc1C1CCN(C(=O)c2nn(C)c(=O)c3ccccc23)C1 (stereo not drawn) turned out to be 1.46

The value of IC50 measured for the compound CCn1nnc2cc(C(=O)N3CCCN(C(=O)c4ccccc4Cl)C(c4ccccc4)C3)ccc21 (stereo not drawn) turned out to be 1210

The value of IC50 measured for the compound `COc1ccc2c(c1)N(C(=O)c1cn(C)c(=O)c3ccccc13)CC2` turned out to be 1010

The value of IC50 measured for the compound `COC(=O)C1(NCC(=O)Nc2nnc(C)s2)CC(C)(C)OC(C)(C)C1` turned out to be 622

The value of IC50 measured for the compound `Cc1nc(=O)c(CCC(=O)N2CC3(CCCC3)c3ccccc32)c[nH]1` turned out to be 18

The value of IC50 measured for the compound COc1ccc(-n2c(C)nnc2SCC(=O)NC2CCN(C(=O)c3cc(Cl)sc3Cl)CC2C)cc1 (stereo not drawn) turned out to be 266

The value of IC50 measured for the compound `Cc1ncc(C(=O)NCCn2cc(Cn3c(C)nc4ccccc43)nn2)c(=O)[nH]1` turned out to be 325

----------
For each of the compounds below, state its ΔTm at 10 µM.
measurement_target: BRD4 (BD1) (Homo sapiens, UniProt O60885)
Construct: A pET28 plasmid containing residues 44–168 of BRD4 (BD1), a 6xHis tag, a TEV protease cleavage site; 6xHis (N, cleaved yes); made in house; host or cells: E. coli Rosetta (D3)
protocol_description: Differential scanning fluorimetry (DSF) single-dose thermal shift screening
Type: binding
assay_conditions: DSF, compound 10 µM, BRD4 (BD1) 2 µM, n = 3, decimal comma; read-out: ΔTm ºC at [10 µM]
Your answer is read as °C, so omit the unit and give the number.

The value of ΔTm at 10 µM measured for the compound Cc1nn(C)cc1C(=O)NC1CCC2(CC1)CCN(C(=O)c1sc3nnc(C)c(C)c3c1N)CC2 [Compound 24] turned out to be 2.35

The value of ΔTm at 10 µM measured for the compound Cc1ccc(CNC(=O)c2ccc3nnc(C)c(C)c3c2)c(OC2CCOC2)c1 (centres unmarked) [Compound 20] turned out to be 2.33

The value of ΔTm at 10 µM measured for the compound Cc1cc(C)n2nc(NC(=O)N3CCC(CCC(C)(C)C)C3)nc2n1 (centres unmarked) [Compound 74] turned out to be 0.4

The value of ΔTm at 10 µM measured for the compound CCn1nnc2cc(C(=O)N3CCC(c4nnc(CNC(=O)c5ccncn5)s4)CC3)ccc21 [Compound 56] turned out to be 3.79

The value of ΔTm at 10 µM measured for the compound Cc1cc(C)n2nc(NC(=O)NCCOC3(C)CCOCC3)nc2n1 [Compound 71] turned out to be 0.79

The value of ΔTm at 10 µM measured for the compound Cc1nnc2sc(C(=O)N(C)C3CN(C(=O)CCC(C)N(C)C)CC34CC4)c(N)c2c1C (centres unmarked) [Compound 59] turned out to be 4.12

The value of ΔTm at 10 µM measured for the compound CCCc1c(C(=O)N2CCOC(CNC(=O)c3cc(C)ccn3)C2)[nH]c(C)c1C(C)=O (centres unmarked) [Compound 40] turned out to be 1.13

The value of ΔTm at 10 µM measured for the compound COC1(CNC(=O)C2=C(Cl)CCCC2)CCN(C(=O)c2sc3nnc(C)c(C)c3c2N)CC1 [Compound 57] turned out to be 0.48

The value of ΔTm at 10 µM measured for the compound Cc1nnc(NC(=O)C2CCCN(C(=O)c3ccc(Br)c(F)c3)C2)s1 (centres unmarked) [Compound 79] turned out to be 1.21

The value of ΔTm at 10 µM measured for the compound Cc1cc(C)n2nc(CNC(=NCCCN3CCOCC3)N3CCC(NC(=O)CBr)C3)nc2n1 (centres unmarked) [Compound 93] turned out to be -0.58

The value of ΔTm at 10 µM measured for the compound COc1ccc2c(c1)N(C(=O)c1cn(C)c(=O)c3ccccc13)CC2 [Compound 15] turned out to be 1.71

The value of ΔTm at 10 µM measured for the compound O=C(Nc1cccc(C(=O)N2CCC(Cn3cc(C4(O)CCOCC4)nn3)CC2)c1)c1ccco1 [Compound 84] turned out to be 1.16

The value of ΔTm at 10 µM measured for the compound CCCc1c(C(=O)NCc2cccc3c2OCCO3)[nH]c(C)c1C(C)=O [Compound 16] turned out to be -0.43

The value of ΔTm at 10 µM measured for the compound COc1ccc(-c2cc(NC(=O)C(=O)NC(C)c3nnc4ncccn34)ccc2OC)cc1 (centres unmarked) [Compound 47] turned out to be 1.25

The value of ΔTm at 10 µM measured for the compound CCOc1ccc(-c2cn(C3CC(NC(=O)c4cc(C)nc5ncnn45)C3)nn2)cc1F (centres unmarked) [Compound 82] turned out to be -0.24

The value of ΔTm at 10 µM measured for the compound CCCc1c(C(=O)N(C)C2CN(C(=O)c3cc(C)n[nH]3)C2)[nH]c(C)c1C(C)=O [Compound 96] turned out to be 2.24

The value of ΔTm at 10 µM measured for the compound COc1ccc(-n2c(C)nnc2SCC(=O)N(c2ccccc2)C2CC2)cc1 [Compound 48] turned out to be 2.35

----------
measurement_target: His6-BRD4 (BD1) (Homo sapiens)
Construct: A pET28 plasmid containing residues 44–168 of BRD4 (BD1), a 6xHis tag, a TEV protease cleavage site; made in house; host or cells: E. coli Rosetta (D3)
protocol_description: Surface plasmon resonance (SPR) single-dose screening
Assay type: binding
assay_conditions: single dose 10 µM, n = 2
experimental_readout: SPR RESULT

>  <compound>
CCOc1ccc(-n2nc(Cc3ccncc3)nc2-c2cn(C)c(=O)c3ccccc23)cc1

>  <SPR RESULT>
Negative

$$$$
>  <compound>
Cc1nnc(NC(=O)CNC(c2ccc(F)cc2)c2cnn(C)c2)s1 (centres unmarked)

>  <SPR RESULT>
Negative

$$$$
>  <compound>
COc1ccc(-n2c(C)nnc2SCC(=O)Nc2ccc(C)c(Cl)c2Cl)cc1 [Compound 55]

>  <SPR RESULT>
Positive

$$$$
>  <compound>
CCCc1c(C(=O)N2CCOC(Cn3cc(-c4ccsc4)nn3)C2)[nH]c(C)c1C(C)=O (centres unmarked)

>  <SPR RESULT>
Positive

$$$$

The value of SPR RESULT measured for the compound COc1ccc(-c2cc(NC(=O)C(=O)NC(C)c3nnc4ncccn34)ccc2OC)cc1 (centres unmarked) turned out to be Negative

The value of SPR RESULT measured for the compound CCOc1ccc(-c2cn(C3CC(NC(=O)c4cc(C)nc5ncnn45)C3)nn2)cc1F (centres unmarked) turned out to be Positive

The value of SPR RESULT measured for the compound Cc1nnc(NC(=O)CCC(=O)N2Cc3ccccc3OC3(CCOC3)C2)s1 (centres unmarked) turned out to be Negative

The value of SPR RESULT measured for the compound `COc1ccc(NS(=O)(=O)c2cc(C(=O)Nc3ccc4nnc(C(C)C)n4c3)ccc2F)cc1` turned out to be Negative

The value of SPR RESULT measured for the compound `Cc1nn(C)cc1C(=O)NC1CCC2(CC1)CCN(C(=O)c1sc3nnc(C)c(C)c3c1N)CC2` turned out to be Positive

The value of SPR RESULT measured for the compound COC1(CNC(=O)c2nscc2Br)CN(C(=O)C2CCS(=O)(=O)N2)C1 (centres unmarked) turned out to be Negative

The value of SPR RESULT measured for the compound Cc1cc(C)n2nc(NC(=O)N3CCC(F)(F)C4(CCOC4)C3)nc2n1 (centres unmarked) turned out to be Negative
